# test.system: UniProt P20309
# assay.notes: Antagonist activity at human recombinant muscarinic M3 receptor expressed in CHO cells assessed as inhibition of acetylcholine-induced calcium mobilization by FLIPR assay
# Assay type: functional, cell-based
readout.name: IC50 (µM)

Here's what some known entries look like.
• CC1CN(Cc2cccc(-c3cccc(CNC(=O)c4ccc5c(c4)OCO5)c3)c2)CCN1 (stereo unspecified) = 0.01
• COc1ccc(CNC(=O)c2ccc3c(c2)OCO3)cc1-c1cccc(CN2CCNCC2)c1 = 0.0316
• CCOc1cccc(C(=O)NCc2cccc(-c3cccc(CN4CCNCC4)c3)c2)c1 = 0.01

A: O=C(NCc1cccc(-c2cccc(CN3CCNCC3)c2)c1)c1ccccc1Cl
B: Cc1ccc(-c2cccc(CN3CCNCC3)c2)cc1CNC(=O)c1ccc2c(c1)OCO2
C: O=C(NCc1cccc(-c2cccc(CN3CCNCC3)c2)c1)c1ccc(Cl)cc1
D: CN1CCN(Cc2cccc(C(=O)NCc3cccc(-c4cccc(CN5CCNCC5)c4)c3)c2)CC1
Ask: Place the items in sequence of falling IC50. List each label, following the requested order.
Result: B, A, C, D
(B: 3.16 µM, A: 1 µM, C: 0.316 µM, D: 0.00398 µM)

----------
# assay.notes: Permeability across artificial phospholipid membrane at pH 7.05 by HPLC
# Assay type: ADME
# test.conditions: not told, read-out: permeability
readout.name: Papp

Ask: Recorded Papp for "C[C@H]1CN(Cc2cccc(-c3cc(CNC(=O)c4cccc(CN5CC[N+](C)(C)CC5)c4)ccc3F)c2)CCN1.[I-]" , please?
Result: < 0.3 ×10⁻⁶ cm/s

----------
# test.system: UniProtKB P20309
# assay.notes: Antagonist activity at human recombinant muscarinic M3 receptor expressed in CHO cells assessed as inhibition of acetylcholine-induced calcium mobilization by FLIPR assay
readout.name: IC50 (nM)

P: N#Cc1cccc(C(=O)NCc2cccc(-c3cccc(CN4CCNCC4)c3)c2)c1
Q: CN1CCCN(Cc2cccc(-c3cccc(CNC(=O)c4ccc5c(c4)OCO5)c3)c2)CC1
R: O=C(NCc1cccc(-c2cccc(CN3CCNCC3)c2)c1)c1cccc(Oc2ccccc2)c1
S: O=C(NCc1ccc(F)c(-c2cccc(CN3CCNCC3)c2)c1)c1ccc2c(c1)OCO2
T: N#Cc1ccc(C(=O)NCc2cccc(-c3cccc(CN4CCNCC4)c3)c2)cc1
Ask: Put the listed items above in order, lowest IC50 first. List each label, following the requested order.
Result: S, P, T, Q, R
(S: 6.31 nM, P: 50.1 nM, T: 79.4 nM, Q: 631 nM, R: 1260 nM)

P: C[C@H]1CN(Cc2cccc(-c3cccc(CNC(=O)c4ccc5c(c4)OCO5)c3)n2)CCN1
Q: O=C(NCc1cccc(-c2cccc(CN3CCNCC3)c2)c1)c1cccc(OC(F)(F)F)c1
Ask: Which one would you say has the larger IC50 value: P , or Q ? Pick one and reply with its label.
Result: Q

----------
# test.system: Muscarinic acetylcholine receptor M3 (Homo sapiens)
# assay.notes: Antagonist activity at human recombinant muscarinic M3 receptor expressed in CHO cells assessed as inhibition of acetylcholine-induced calcium mobilization by FLIPR based single concentration kinetic assay
# Format: functional, cell-based
# test.conditions: read-out: pA2 (converted)
readout.name: Kb (nM)

Here's what some known entries look like.
* C[C@H]1CN(Cc2cccc(-c3cc(CNC(=O)c4cccc(CN5CCN(C=O)CC5)c4)ccc3F)c2)CCN1 | 0.0794
* C[C@H]1CN(Cc2cccc(-c3cc(CNC(=O)c4cccc(CN5CCCN(C)CC5)c4)ccc3F)c2)CCN1 | 0.251
* C[C@H]1CN(Cc2cccc(-c3cc(CNC(=O)c4cccc(CN5CC[N+]6(CCCCC6)CC5)c4)ccc3F)c2)CCN1 | 0.126
* C[C@H]1CN(Cc2cccc(-c3cc(CNC(=O)c4cccc(CN5CC[N+](C)(Cc6ccccc6)CC5)c4)ccc3F)c2)CCN1 | 0.0794

I: C[C@H]1CN(Cc2cccc(-c3cc(CNC(=O)c4cccc(CN5CCCCC5)c4)ccc3F)c2)CCN1
II: C[C@H]1CN(Cc2cccc(-c3cc(CNC(=O)c4cccc(C[N+]5(C)CCNCC5)c4)ccc3F)c2)CCN1
III: C[C@H]1CN(Cc2cccc(-c3cc(CNC(=O)c4cccc(CN5CCN(CCCO)CC5)c4)ccc3F)c2)CCN1
IV: C[C@H]1CN(Cc2cccc(-c3cc(CNC(=O)c4cccc(CN5CCN(C)CC5)c4)ccc3F)c2)CCN1
Ask: Could you please order the items by Kb, going from the lowest number to the highest? List each label, following the requested order.
Result: IV, III, I, II

----------
# test.system: Muscarinic acetylcholine receptor M3 (Homo sapiens)
# assay.notes: Antagonist activity at human recombinant muscarinic M3 receptor expressed in CHO cells assessed as inhibition of acetylcholine-induced calcium mobilization by FLIPR assay
readout.name: IC50 (µM)

* CS(=O)(=O)c1cccc(C(=O)NCc2cccc(-c3cccc(CN4CCNCC4)c3)c2)c1 | 0.02
* O=C(Nc1cccc(-c2cccc(CN3CCNCC3)c2)c1)c1ccc2c(c1)OCO2 | 6.31
* O=C(NCc1cccc(-c2cccc(CN3CCNCC3)c2)c1)c1cccc(F)c1 | 0.794
* O=C(NCc1cccc(-c2cccc(CN3C[C@@H]4C[C@H]3CN4)c2)c1)c1ccc2c(c1)OCO2 | 0.0794
* O=C(NCc1cccc(-c2cccc(CN3CCNCC3)c2)c1)c1ccc(C(F)(F)F)cc1 | 0.631

1: CC(=O)c1cccc(C(=O)NCc2cccc(-c3cccc(CN4CCNCC4)c3)c2)c1
2: Nc1cccc(C(=O)NCc2cccc(-c3cccc(CN4CCNCC4)c3)c2)c1
Ask: Which one would you say has the larger IC50 value: 1 , or 2 ? Pick one and reply with its label.
Result: 2

----------
# test.system: Muscarinic acetylcholine receptor M3 (Homo sapiens, UniProt P20309)
# Sequence (P20309 whole entry): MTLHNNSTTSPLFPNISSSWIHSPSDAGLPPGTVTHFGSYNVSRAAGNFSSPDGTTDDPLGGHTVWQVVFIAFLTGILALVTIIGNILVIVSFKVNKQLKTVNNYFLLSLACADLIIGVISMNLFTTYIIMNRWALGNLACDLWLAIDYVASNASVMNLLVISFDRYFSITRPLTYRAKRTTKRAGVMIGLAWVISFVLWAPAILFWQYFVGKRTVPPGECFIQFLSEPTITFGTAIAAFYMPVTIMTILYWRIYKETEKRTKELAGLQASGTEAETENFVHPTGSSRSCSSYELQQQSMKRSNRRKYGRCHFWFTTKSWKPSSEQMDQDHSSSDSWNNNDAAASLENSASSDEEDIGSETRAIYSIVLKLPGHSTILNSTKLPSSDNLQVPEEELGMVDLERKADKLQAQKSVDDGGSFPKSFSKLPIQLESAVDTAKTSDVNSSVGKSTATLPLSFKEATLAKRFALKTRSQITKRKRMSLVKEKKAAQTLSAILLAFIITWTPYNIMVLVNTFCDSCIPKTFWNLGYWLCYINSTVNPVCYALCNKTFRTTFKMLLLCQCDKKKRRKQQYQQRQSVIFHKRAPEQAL
# assay.notes: Antagonist activity at human recombinant muscarinic M3 receptor expressed in CHO cells assessed as inhibition of acetylcholine-induced calcium mobilization by FLIPR based single concentration kinetic assay
# Format: functional, cell-based
# test.conditions: read-out: pA2 (converted)
readout.name: Kb (nM)

* CCC[N+]1(C)CCN(Cc2cccc(C(=O)NCc3ccc(F)c(-c4cccc(CN5CCN[C@@H](C)C5)c4)c3)c2)CC1 | 0.1
* C[C@H]1CN(Cc2cccc(-c3cc(CNC(=O)c4cccc(CN5CC[N+](C)(C)CC5)c4)ccc3F)c2)CCN1.[I-] | 0.158

a: C[C@H]1CN(Cc2cccc(-c3cc(CNC(=O)c4cccc(CN(C)C)c4)ccc3F)c2)CCN1
b: C[C@H]1CN(Cc2cccc(-c3cc(CNC(=O)c4cccc(CN(C)CCCN(C)C)c4)ccc3F)c2)CCN1
c: C[C@H]1CN(Cc2cccc(-c3cc(CNC(=O)c4cccc(CN5CCOCC5)c4)ccc3F)c2)CCN1
Ask: Place the items in sequence of falling Kb. List each label, following the requested order.
Result: a, b, c

----------
# test.system: Muscarinic acetylcholine receptor M3 (Homo sapiens, UniProt P20309)
# assay.notes: Antagonist activity at human recombinant muscarinic M3 receptor expressed in CHO cells assessed as inhibition of acetylcholine-induced calcium mobilization by FLIPR assay
readout.name: IC50 (nM)

- C[C@@H]1CN(Cc2cccc(-c3cccc(CNC(=O)c4ccc5c(c4)OCO5)c3)c2)CCN1: 50.1
- N#Cc1ccccc1C(=O)NCc1cccc(-c2cccc(CN3CCNCC3)c2)c1: 316
- O=C(NCc1cccc(-c2cccc(CN3CCCCC3)c2)c1)c1ccc2c(c1)OCO2: 6310
- O=C(NCc1cccc(-c2cccc(CN3CCNCC3)c2)c1)Nc1ccc2c(c1)OCO2: 7940
- CC(=O)Nc1cccc(C(=O)NCc2cccc(-c3cccc(CN4CCNCC4)c3)c2)c1: 200

I: CN1CCN(Cc2cccc(-c3cccc(CNC(=O)c4ccc5c(c4)OCO5)c3)c2)CC1
II: CN(C)c1cccc(C(=O)NCc2cccc(-c3cccc(CN4CCNCC4)c3)c2)c1
III: COc1cccc(C(=O)NCc2cccc(-c3cccc(CN4CCNCC4)c3)c2)c1
IV: O=C(NCc1cccc(-c2cccc(CN3CCNCC3)c2)c1)c1cccc(C(F)(F)F)c1
V: CC(=O)N1CCN(Cc2cccc(-c3cccc(CNC(=O)c4ccc5c(c4)OCO5)c3)c2)CC1
Ask: Could you please order the items by IC50, going from the lowest number to the highest? List each label, following the requested order.
Result: IV, III, II, I, V
(IV: 50.1 nM, III: 79.4 nM, II: 200 nM, I: 501 nM, V: 3980 nM)

P: C[C@H]1CN(Cc2ccc(-c3cccc(CNC(=O)c4ccc5c(c4)OCO5)c3)s2)CCN1
Q: O=C(NCc1cccc(-c2cccc(CN3CCNCC3)c2)c1)c1cccc(Cl)c1
R: O=C(NCc1cccc(-c2ccc(F)c(CN3CCNCC3)c2)c1)c1ccc2c(c1)OCO2
S: O=C(NCc1cccc(-c2cccc(CN3CCNCC3)c2)c1F)c1ccc2c(c1)OCO2
Ask: Place the items in sequence of falling IC50. List each label, following the requested order.
Result: S, P, R, Q
(S: 2510 nM, P: 501 nM, R: 200 nM, Q: 100 nM)
